For each record, write down the corresponding IC90.
Tested on: Plasmodium falciparum
Test: Inhibitory concentration against […] Plasmodium falciparum W2
Format: functional
Conditions: Plasmodium falciparum; read-out: IC90
Numbers only, in µg/mL.

COMPOUND | READOUT | EXPERIMENTAL VALUE
CCN(CC)CCCC(C)Nc1ccnc2cc(Cl)ccc12 (centres undefined) | IC90 | 0.0931
C[C@@H]1CC[C@H]2[C@@H](C)C(=O)O[C@@H]3O[C@@]4(C)CC[C@@H]1[C@]32OO4 | IC90 | 0.00105
COC1CCCC(OO)CO1 (single isomer, unassigned; isomer A) | IC90 | 12.8

Input line: Specify IC90 for OC(c1cc(C(F)(F)F)nc2c(C(F)(F)F)cccc12)C1CCCCN1 (centres undefined) and stop.
Output line: 0.00373

Numbers sourced from ChEMBL document CHEMBL1126536.
